# Test system: 996289-038-R-J1-PDC complex spheroid viability
# protocol text: Anticancer human tumor 996289-038-R-J1-PDC patient-derived colon adenocarcinoma cell line growth inhibition [CLK]
# condition: second compound 0.0316 µM; first compound 0.0316 µM; hits give low values
measured quantity: viability, T/C

Here are 5 compounds together with their reported answers.
C=C(F)C(=O)N1CCN(c2nc(OCC3CCCN3C)nc3c2CCN(c2cccc4cccc(Cl)c24)C3)CC1CC#N (stereo not given) + CN1CCN(c2cc(C(=O)Nc3cc4cc(-c5cnn(C)c5)ccc4cn3)ccn2)CC1 | 98.2%
C#Cc1c(F)ccc2cc(O)cc(-c3ncc4c(N5CC6CCC(C5)N6)nc(OCC56CCCN5CC(F)C6)nc4c3F)c12 (stereo not given) + CNC(=O)c1ccc(Nc2nc(OC3CCCC3)c3c(-c4ccc5nc(C)oc5c4)c[nH]c3n2)c(OC)c1 | 107%
O=c1[nH]cc(F)c(=O)[nH]1 + CNC(=O)c1ccc(Nc2nc(OC3CCCC3)c3c(-c4ccc5nc(C)oc5c4)c[nH]c3n2)c(OC)c1 | 108%
O=C(c1cc(Cc2n[nH]c(=O)c3ccccc23)ccc1F)N1CCN(C(=O)C2CC2)CC1 + CNC(=O)c1ccc(Nc2nc(OC3CCCC3)c3c(-c4ccc5nc(C)oc5c4)c[nH]c3n2)c(OC)c1 | 126%
CC1(C)CCC(CN2CCN(c3ccc(C(=O)NS(=O)(=O)c4ccc(NCC5CCOCC5)c([N+](=O)[O-])c4)c(Oc4cnc5[nH]ccc5c4)c3)CC2)=C(c2ccc(Cl)cc2)C1 + CNC(=O)c1ccc(Nc2nc(OC3CCCC3)c3c(-c4ccc5nc(C)oc5c4)c[nH]c3n2)c(OC)c1 | 128%

Query: Let me know recorded viability, T/C for O=C(c1cc(Cc2n[nH]c(=O)c3ccccc23)ccc1F)N1CCN(C(=O)C2CC2)CC1 + CN1CCN(c2cc(C(=O)Nc3cc4cc(-c5cnn(C)c5)ccc4cn3)ccn2)CC1 , thanks.
Result: 92.9%

Query: Specify reported viability, T/C for the compound shown: COc1cccc2c1C(=O)c1c(O)c3c(c(O)c1C2=O)CC(O)(C(=O)CO)CC3OC1CC(N)C(O)C(C)O1 (stereo not given) + CNC(=O)c1ccc(Nc2nc(OC3CCCC3)c3c(-c4ccc5nc(C)oc5c4)c[nH]c3n2)c(OC)c1
Result: 119%

Query: Input CCc1c2c(nc3ccc(O)cc13)-c1cc3c(c(=O)n1C2)COC(=O)[C@]3(O)CC + CNC(=O)c1ccc(Nc2nc(OC3CCCC3)c3c(-c4ccc5nc(C)oc5c4)c[nH]c3n2)c(OC)c1 , output reported viability, T/C.
Result: 63.3%

Query: Output viability, T/C of COc1ccc([C@@H](O)c2cc(-c3ncnc4cc(N5CCOCC5)ccc34)c(F)cc2Cl)nn1 + CNC(=O)c1ccc(Nc2nc(OC3CCCC3)c3c(-c4ccc5nc(C)oc5c4)c[nH]c3n2)c(OC)c1
Result: 117%

Query: Give the reported value of viability, T/C for this record: CCN1CCN(Cc2ccc(Nc3ncc(F)c(-c4cc(F)c5nc(C)n(C(C)C)c5c4)n3)nc2)CC1 + CNC(=O)c1ccc(Nc2nc(OC3CCCC3)c3c(-c4ccc5nc(C)oc5c4)c[nH]c3n2)c(OC)c1
Result: 106%

----------
# Tested on: 996289-038-R-J1-PDC complex spheroid viability
# protocol text: Anticancer human tumor 996289-038-R-J1-PDC cell line growth inhibition [CLK];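 note: spheroids exposed to the agents for 7 days before readout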
# condition: second compound 0.316 µM; first compound 0.003 µM; hits give low values
measured quantity: viability, T/C (%)
Express it in %; write the number only.

Query: Would you please give the reported viability, T/C of C=CC(=O)Nc1cc(Nc2nccc(-c3cn(C)c4ccccc34)n2)c(OC)cc1N(C)CCN(C)C + CN1CCN(c2cc(C(=O)Nc3cc4cc(-c5cnn(C)c5)ccc4cn3)ccn2)CC1 with 996289-038-R-J1-PDC complex spheroid viability?
Result: 69

Query: Report the value of viability, T/C obtained on 996289-038-R-J1-PDC complex spheroid viability for CC(C)CC(NC(=O)C(Cc1ccccc1)NC(=O)c1cnccn1)B(O)O (centres undefined) + CNC(=O)c1ccc(Nc2nc(OC3CCCC3)c3c(-c4ccc5nc(C)oc5c4)c[nH]c3n2)c(OC)c1 .
Result: 30.4

Query: Print 996289-038-R-J1-PDC complex spheroid viability viability, T/C for C=CC(=O)Nc1cc(Nc2nccc(-c3cn(C)c4ccccc34)n2)c(OC)cc1N(C)CCN(C)C + CNC(=O)c1ccc(Nc2nc(OC3CCCC3)c3c(-c4ccc5nc(C)oc5c4)c[nH]c3n2)c(OC)c1 .
Result: 74.3

Query: Report viability, T/C under test system 996289-038-R-J1-PDC complex spheroid viability for CC(C)CC(NC(=O)C(Cc1ccccc1)NC(=O)c1cnccn1)B(O)O (centres undefined) + CN1CCN(c2cc(C(=O)Nc3cc4cc(-c5cnn(C)c5)ccc4cn3)ccn2)CC1 .
Result: 39.5

----------
# System: 996289-038-R-J1-PDC complex spheroid viability
# protocol text: Anticancer human tumor 996289-038-R-J1-PDC cell line growth inhibition [CLK];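 note: spheroids exposed to the agents for 7 days before readout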
# condition: second compound 0.0316 µM; first compound 0.3 µM; hits give low values
This section presents compounds with their documented viability, T/C values.

For orientation, consider the following solved cases.
NC(=O)C(=Cn1cnc(-c2cc(C(F)(F)F)cc(C(F)(F)F)c2)n1)c1cncnc1 + CN1CCN(c2cc(C(=O)Nc3cc4cc(-c5cnn(C)c5)ccc4cn3)ccn2)CC1 | 18.6%
C=CC(=O)Nc1cc(Nc2nccc(-c3cn(C)c4ccccc34)n2)c(OC)cc1N(C)CCN(C)C + CN1CCN(c2cc(C(=O)Nc3cc4cc(-c5cnn(C)c5)ccc4cn3)ccn2)CC1 | 74.7%
CC(C)CC(NC(=O)C(Cc1ccccc1)NC(=O)c1cnccn1)B(O)O (stereo unspecified) + CN1CCN(c2cc(C(=O)Nc3cc4cc(-c5cnn(C)c5)ccc4cn3)ccn2)CC1 | 0.26%
NC(=O)C(=Cn1cnc(-c2cc(C(F)(F)F)cc(C(F)(F)F)c2)n1)c1cncnc1 + CNC(=O)c1ccc(Nc2nc(OC3CCCC3)c3c(-c4ccc5nc(C)oc5c4)c[nH]c3n2)c(OC)c1 | 31.2%
CC(C)CC(NC(=O)C(Cc1ccccc1)NC(=O)c1cnccn1)B(O)O (stereo unspecified) + CNC(=O)c1ccc(Nc2nc(OC3CCCC3)c3c(-c4ccc5nc(C)oc5c4)c[nH]c3n2)c(OC)c1 | 0.51%

Please examine the following record next.
Query: For C=CC(=O)Nc1cc(Nc2nccc(-c3cn(C)c4ccccc34)n2)c(OC)cc1N(C)CCN(C)C + CNC(=O)c1ccc(Nc2nc(OC3CCCC3)c3c(-c4ccc5nc(C)oc5c4)c[nH]c3n2)c(OC)c1 , write its viability, T/C.
Result: 85.8%

----------
# System: 996289-038-R-J1-PDC complex spheroid viability
# protocol text: Anticancer human tumor 996289-038-R-J1-PDC cell line growth inhibition [CLK];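 note: spheroids exposed to the agents for 7 days before readout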
# condition: second compound 0.0316 µM; first compound 0.0316 µM; hits give low values
measured quantity: viability, T/C (%)
Express your answer in %, writing the number without its unit.

Guide cases for viability, T/C, answers given:
Cn1ncnc1[C@H]1c2n[nH]c(=O)c3cc(F)cc(c23)N[C@@H]1c1ccc(F)cc1 + CN1CCN(c2cc(C(=O)Nc3cc4cc(-c5cnn(C)c5)ccc4cn3)ccn2)CC1 | 101
COc1c(OCCCN2CCOCC2)ccc2c3n(c(=NC(=O)c4cnc(N)nc4)nc12)CCN3 + CNC(=O)c1ccc(Nc2nc(OC3CCCC3)c3c(-c4ccc5nc(C)oc5c4)c[nH]c3n2)c(OC)c1 | 72.6
Cn1ncnc1[C@H]1c2n[nH]c(=O)c3cc(F)cc(c23)N[C@@H]1c1ccc(F)cc1 + CNC(=O)c1ccc(Nc2nc(OC3CCCC3)c3c(-c4ccc5nc(C)oc5c4)c[nH]c3n2)c(OC)c1 | 133
Nc1ccn(C2OC(CO)C(O)C2(F)F)c(=O)n1 (stereo not given) + CN1CCN(c2cc(C(=O)Nc3cc4cc(-c5cnn(C)c5)ccc4cn3)ccn2)CC1 | 86.7
CCCS(=O)(=O)Nc1ccc(F)c(C(=O)c2c[nH]c3ncc(-c4ccc(Cl)cc4)cc23)c1F + CN1CCN(c2cc(C(=O)Nc3cc4cc(-c5cnn(C)c5)ccc4cn3)ccn2)CC1 | 92.3

Query: Quote 996289-038-R-J1-PDC complex spheroid viability viability, T/C for entry Nc1ccn(C2OC(CO)C(O)C2(F)F)c(=O)n1 (stereo not given) + CNC(=O)c1ccc(Nc2nc(OC3CCCC3)c3c(-c4ccc5nc(C)oc5c4)c[nH]c3n2)c(OC)c1 .
Result: 93.1

Query: Jot down viability, T/C (996289-038-R-J1-PDC complex spheroid viability) of CC(=O)O[C@H]1C(=O)[C@@]2(C)[C@H]([C@H](OC(=O)c3ccccc3)[C@]3(O)C[C@H](OC(=O)[C@H](O)[C@@H](NC(=O)c4ccccc4)c4ccccc4)C(C)=C1C3(C)C)[C@]1(OC(C)=O)CO[C@@H]1C[C@@H]2O + CNC(=O)c1ccc(Nc2nc(OC3CCCC3)c3c(-c4ccc5nc(C)oc5c4)c[nH]c3n2)c(OC)c1 .
Result: 109

Query: Report viability, T/C on 996289-038-R-J1-PDC complex spheroid viability for this entry: CC1COCCN1c1cc(C2(S(C)(=N)=O)CC2)nc(-c2ccnc3[nH]ccc23)n1 (stereo not given) + CN1CCN(c2cc(C(=O)Nc3cc4cc(-c5cnn(C)c5)ccc4cn3)ccn2)CC1
Result: 103

Query: Print 996289-038-R-J1-PDC complex spheroid viability viability, T/C for CC1COCCN1c1cc(C2(S(C)(=N)=O)CC2)nc(-c2ccnc3[nH]ccc23)n1 (stereo not given) + CNC(=O)c1ccc(Nc2nc(OC3CCCC3)c3c(-c4ccc5nc(C)oc5c4)c[nH]c3n2)c(OC)c1 .
Result: 116

Query: Param request: viability, T/C | system 996289-038-R-J1-PDC complex spheroid viability | item CC(Nc1ccc2c(c1)OCCn1cc(N3C(=O)OCC3C(F)F)nc1-2)C(N)=O (stereo not given) + CNC(=O)c1ccc(Nc2nc(OC3CCCC3)c3c(-c4ccc5nc(C)oc5c4)c[nH]c3n2)c(OC)c1
Result: 113
